Measured EC50 accompanies every entry in the list below.
- targetDesc: Short transient receptor potential channel 4 (Mus musculus, UniProt Q9QUQ5)
- Sequence (Q9QUQ5 whole entry): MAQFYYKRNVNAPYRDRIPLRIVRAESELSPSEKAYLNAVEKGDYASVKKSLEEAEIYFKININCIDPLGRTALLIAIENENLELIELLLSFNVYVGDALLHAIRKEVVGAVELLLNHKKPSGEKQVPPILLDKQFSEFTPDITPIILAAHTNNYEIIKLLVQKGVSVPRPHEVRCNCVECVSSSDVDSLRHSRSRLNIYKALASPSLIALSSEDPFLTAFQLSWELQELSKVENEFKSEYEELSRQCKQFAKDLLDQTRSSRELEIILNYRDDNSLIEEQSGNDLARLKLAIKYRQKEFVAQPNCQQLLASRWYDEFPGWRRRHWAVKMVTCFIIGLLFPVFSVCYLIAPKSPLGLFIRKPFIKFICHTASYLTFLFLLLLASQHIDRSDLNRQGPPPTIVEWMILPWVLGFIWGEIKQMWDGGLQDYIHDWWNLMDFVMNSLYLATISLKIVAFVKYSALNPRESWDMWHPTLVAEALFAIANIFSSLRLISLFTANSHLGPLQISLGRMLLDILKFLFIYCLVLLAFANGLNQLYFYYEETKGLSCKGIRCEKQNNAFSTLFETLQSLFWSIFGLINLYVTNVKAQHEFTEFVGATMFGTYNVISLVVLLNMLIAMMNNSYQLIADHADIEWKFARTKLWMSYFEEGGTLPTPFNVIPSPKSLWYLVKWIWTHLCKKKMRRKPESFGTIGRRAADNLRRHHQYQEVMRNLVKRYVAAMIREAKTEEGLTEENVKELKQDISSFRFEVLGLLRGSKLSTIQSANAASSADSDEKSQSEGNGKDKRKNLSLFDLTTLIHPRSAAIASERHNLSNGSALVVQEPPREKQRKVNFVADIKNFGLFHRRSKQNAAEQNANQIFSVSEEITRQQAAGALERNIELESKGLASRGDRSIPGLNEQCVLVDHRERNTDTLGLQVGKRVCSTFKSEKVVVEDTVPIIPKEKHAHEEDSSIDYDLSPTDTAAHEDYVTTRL
- experimentNotes: block of DAMGO-driven TRPC4 calcium entry – cell-based, HEK293 TRPC4/mu-opioid, Fluo-4 calcium, dose response (AID 434942);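 further: potency of inhibitors blocking the TRPC4 calcium response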
- Type: functional
Calls of active or inactive are those of the source. How the calls were made is not given here.

O=C(C[n+]1cc(-c2ccc(Cl)c(Cl)c2)n2c1CCC2)N1c2ccccc2Sc2ccccc21 = 1.88 µM (active)
COc1ccc(Cn2nnnc2C(c2cc3cc(C)ccc3nc2O)N2CCN(C)CC2)cc1 (stereo unspecified) = 1.88 µM (active)

Shifting focus to the compound that follows.
API: value(readout=EC50, system=Short transient receptor potential channel 4 (Mus musculus, UniProt Q9QUQ5)) for record `O=C(NCc1ccccc1)C1=C[C@H](c2ccc3c(c2)OCO3)C[C@H](OCc2ccc(CO)cc2)O1`
5.31 µM (active)
